Tested on: HT-29
measurement-description: Inhibition of the growth against human Colon Carcinoma (HT-29) cell line after 72 hr exposure
Assay type: functional, cell-based
settings: HT-29, 72 h
assay-endpoint: IC50 (nM)

(1) CC(=O)OC1C(=O)C2(C)C(O)CC3OCC3(OC(C)=O)C2C(OC(=O)C2CCCCC2)C2(O)CC(OC(=O)C(O)C(NC(=O)OC(C)(C)C)C3CCCCC3)C(C)=C1C2(C)C (stereo not drawn)
(2) CC(=O)OC1C(=O)C2(C)C(O)CC3OCC3(OC(C)=O)C2C(OC(=O)C2CCCCC2)C2(O)CC(OC(=O)C(O)C(CC(C)C)NC(=O)OC(C)(C)C)C(C)=C1C2(C)C (stereo not drawn)
(3) C/C=C/C(NC(=O)OC(C)(C)C)C(O)C(=O)OC1CC2(O)C(OC(=O)C3CCCCC3)C3C4(OC(C)=O)COC4CC(O)C3(C)C(=O)C(OC(C)=O)C(=C1C)C2(C)C (stereo not drawn)
Arrange the 3 molecules from largest to smallest IC50. Write the labels out in the order the request specifies.
1, 3, 2
(1: 59 nM, 3: 8.5 nM, 2: 5.6 nM)
